Answer each item with its documented inhibition.
# target.system: Integrin alpha-IIb (Homo sapiens) (UniProt P08514)
# Sequence (P08514 whole entry, looked up): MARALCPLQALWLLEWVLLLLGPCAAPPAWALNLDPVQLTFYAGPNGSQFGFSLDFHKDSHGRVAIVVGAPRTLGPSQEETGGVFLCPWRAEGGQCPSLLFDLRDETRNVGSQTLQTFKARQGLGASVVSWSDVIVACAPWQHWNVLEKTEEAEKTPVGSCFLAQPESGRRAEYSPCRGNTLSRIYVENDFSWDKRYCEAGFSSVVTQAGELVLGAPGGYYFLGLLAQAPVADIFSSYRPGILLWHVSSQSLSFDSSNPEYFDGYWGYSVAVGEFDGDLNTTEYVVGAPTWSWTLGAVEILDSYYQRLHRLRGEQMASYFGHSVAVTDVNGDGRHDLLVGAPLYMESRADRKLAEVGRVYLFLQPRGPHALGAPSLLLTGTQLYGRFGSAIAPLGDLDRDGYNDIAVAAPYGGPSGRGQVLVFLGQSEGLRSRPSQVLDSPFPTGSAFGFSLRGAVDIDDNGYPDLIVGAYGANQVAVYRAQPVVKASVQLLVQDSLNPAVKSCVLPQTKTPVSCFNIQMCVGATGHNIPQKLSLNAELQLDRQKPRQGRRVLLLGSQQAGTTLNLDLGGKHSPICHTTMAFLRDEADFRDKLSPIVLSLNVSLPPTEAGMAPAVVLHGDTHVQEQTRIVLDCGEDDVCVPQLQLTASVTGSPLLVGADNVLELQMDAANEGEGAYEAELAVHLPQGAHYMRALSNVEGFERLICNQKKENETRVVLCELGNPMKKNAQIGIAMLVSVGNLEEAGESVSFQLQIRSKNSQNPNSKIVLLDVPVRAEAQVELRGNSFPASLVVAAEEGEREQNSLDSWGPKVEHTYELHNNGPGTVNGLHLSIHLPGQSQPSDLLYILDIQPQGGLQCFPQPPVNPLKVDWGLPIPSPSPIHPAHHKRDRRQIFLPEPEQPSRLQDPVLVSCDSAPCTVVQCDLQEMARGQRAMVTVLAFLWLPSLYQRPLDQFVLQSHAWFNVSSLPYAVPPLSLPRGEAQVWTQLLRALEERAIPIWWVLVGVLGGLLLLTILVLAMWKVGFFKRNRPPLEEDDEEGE
# procedure.text: Platelet Adhesion Secondary Assay for Inhibitors of Platelet Integrin alphallb-beta3
# experimental.parameters: human platelet adhesion to fibrinogen, calcein fluorescence; at 30 µM, stronger effect = higher value
Records with an inconclusive call do not appear. Active and inactive are the calls of the source.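 How the source made its calls: active means compounds whose potency, the dose giving half inhibition, is below 20 µM; inconclusive means compounds meeting neither the active nor the inactive rule; inactive means potency over 20 µM or below 50% inhibition when unfitted.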

# annotated cases, reported inhibition shown
• CNCC(=O)Nc1cccc(-c2nn3c(=O)cc(N4CCNCC4)nc3s2)c1 = 24% (inactive)
• CC(C)(C)c1nn2c(=O)cc(N3CCNCC3)nc2s1 = 21% (inactive)
• O=C(O)c1ccc(-c2nn3c(=O)cc(N4CCNCC4)nc3s2)cc1 = 48% (inactive)

Could you now consider this next compound?
Hi! What's the reported inhibition for CCc1nn2c(=O)cc(N3C(C)CNCC3C)nc2s1 (centres undefined) on Integrin alpha-IIb (Homo sapiens) (UniProt P08514)?
27% (inactive)
